Entry source: patent US20110207726A1

# experimental system: Papain from Carica papaya (Carica papaya)
# Construct: Papain from Carica papaya (Calbiochem 5125, 11 ng/mL); purchased Calbiochem 5125; host or cells: Carica papaya
# Sequence (P00784 134-345): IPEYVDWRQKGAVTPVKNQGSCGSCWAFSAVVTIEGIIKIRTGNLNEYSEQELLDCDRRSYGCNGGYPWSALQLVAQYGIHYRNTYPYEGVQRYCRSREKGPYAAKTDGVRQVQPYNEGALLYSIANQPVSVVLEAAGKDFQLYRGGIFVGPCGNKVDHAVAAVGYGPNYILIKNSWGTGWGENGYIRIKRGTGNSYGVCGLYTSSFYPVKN
# protocol notes: Selectivity assay, papain
# Format: biochemical
# test conditions: Papain; no preincubation; 30 min; read-out: IC50 @ 30 min
# Experimental: Compound No. 1 was assayed for inhibition against papain and cathepsins B, G, K, S, and V. Papain from Carica papaya (Calbiochem 5125, 11 ng/mL), human cathepsin K (Calbiochem 342001, 35 ng/mL), human spleen cathepsin S (Calbiochem 219344, 40 ng/mL), and human cathepsin V (Calbiochem 219467, 39 ng/ml) were assayed using Z-Phe-Arg-AMC substrate at 20 μM, 20 μM, 15 μM, and 1 μM, respectively. […] Reaction progress was monitored using the Envision microplate reader. […]
attribute measured: pIC50
Notebook: values listed as pIC50 are -log10 of the concentration (mol/L).

Query: pIC50; subject: CCc1ccccc1NC(=O)CSC(=O)NNC(=O)[C@H](Cc1c[nH]c2ccccc12)NC(=O)OC(C)(C)C
5.53

###

# experimental system: human cathepsin K (Homo sapiens, UniProt P43235)
# Construct: purchased Calbiochem 342001
# Sequence (P43235 115-329): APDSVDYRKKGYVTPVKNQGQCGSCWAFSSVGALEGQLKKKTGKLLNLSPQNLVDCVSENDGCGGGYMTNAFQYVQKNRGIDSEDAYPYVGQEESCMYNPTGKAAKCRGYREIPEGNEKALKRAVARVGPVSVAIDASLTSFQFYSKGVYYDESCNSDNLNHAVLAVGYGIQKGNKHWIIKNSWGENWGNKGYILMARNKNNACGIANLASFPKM
# protocol notes: Selectivity assay, cathepsin K
# Assay type: biochemical
# test conditions: Cathepsin K; no preincubation; 90 min; read-out: IC50 @ 90 min
attribute measured: pIC50
Notebook: values listed as pIC50 are -log10 of the concentration (mol/L).

Query: pIC50; subject: CCc1ccccc1NC(=O)CSC(=O)NNC(=O)[C@H](Cc1c[nH]c2ccccc12)NC(=O)OC(C)(C)C [Compound No. 1]
5.16

###

Kindly state IC50 for each of the entries shown.
# experimental system: human liver cathepsin L (Homo sapiens)
# Construct: 8.7 ng/mL human liver cathepsin L (Calbiochem 219402); purchased Calbiochem 219402; host or cells: human liver
# Sequence (P07711 114-288 limits assumed): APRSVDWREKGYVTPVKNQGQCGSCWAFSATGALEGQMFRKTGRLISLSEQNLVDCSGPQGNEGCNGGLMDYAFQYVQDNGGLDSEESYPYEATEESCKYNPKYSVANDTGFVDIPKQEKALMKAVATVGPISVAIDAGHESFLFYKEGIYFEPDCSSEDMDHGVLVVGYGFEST
# Sequence (P07711 292-333 limits assumed): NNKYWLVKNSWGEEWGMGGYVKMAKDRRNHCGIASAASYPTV
# protocol notes: Cathepsin L assay, IC50 determination
# Format: biochemical
# test conditions: Table 1; read-out: IC50 Cat L
Response body: numeric value in nM, unit text excluded.

Query: IC50; subject: CC(C)(C)OC(=O)N[C@@H](Cc1ccc(OCc2ccccc2)cc1)C(=O)NNC(=O)SCC(=O)N1CCc2ccccc2C1
86

Can you check CCOC(=O)c1cccc(NC(=O)CSC(=O)NNC(=O)[C@H](COCc2ccccc2)NC(=O)OC(C)(C)C)c1 next?
430

Can you check COC(=O)CSC(=O)NNC(=O)[C@H](Cc1c[nH]c2ccccc12)NC(=O)OC(C)(C)C next?
98

###

Kindly state pIC50 for each of the entries shown.
# experimental system: human liver cathepsin L (Homo sapiens)
# Construct: 8.7 ng/mL human liver cathepsin L (Calbiochem 219402); purchased Calbiochem 219402; host or cells: human liver
# protocol notes: Cathepsin L assay, IC50 determination
# Assay type: biochemical
# test conditions: Table 1; read-out: IC50 Cat L
Notebook: values listed as pIC50 are -log10 of the concentration (mol/L).

Query: pIC50; subject: CSCC[C@@H](CC(=O)NNC(=O)SCC(=O)N1CCCc2ccccc21)NC(=O)OC(C)(C)C
5.16

Can you check CCc1ccccc1NC(=O)CSC(=O)NNC(=O)[C@H](CCSC)NC(=O)OC(C)(C)C next?
5.89

Can you check CC(C)(C)OC(=O)N[C@@H](Cc1c[nH]c2ccccc12)C(=O)NNC(=O)SCC(=O)NCCc1ccccc1 next?
7.54
